target: human β3 adrenergic receptor (Homo sapiens); construct: stably transfected with the cloned β-adrenergic receptor (β1, β2 or β3); expressed in transfected cells; host or cells: Chinese hamster ovary (CHO) cells, stably transfected; experiment: Functional assay: cAMP production (LANCE TR-FRET) in CHO cells stably transfected with cloned β3 adrenergic receptor; format: cell-based; conditions: Table 3; cAMP production, CHO cells expressing human β3 AR; read-out: Human β3 functional
pEC50: −log10 of the molar value.
Reported pEC50 by item:

CC(C(=O)Nc1ccc(CC2CC[C@H]([C@H](O)c3cccnc3)N2)cc1)c1cscn1 (single isomer, unassigned) [Example 195] :: > 9.00
CC(C(=O)Nc1ccc(CC2CC[C@H]([C@H](O)c3cccnc3)N2)cc1)n1ncccc1=O (single isomer, unassigned) :: 8.00 to 9.00

INPUT: Entry under review: Cc1nc2c(s1)CCC2C(=O)Nc1ccc(CC2CC[C@H]([C@H](O)c3cccnc3)N2)cc1 (single isomer, unassigned) [Example 116] . Reported pEC50?
OUTPUT: 6.00 to 7.00

* * *

target: human β3 adrenergic receptor (Homo sapiens); construct: stably transfected with the cloned β-adrenergic receptor (β1, β2 or β3); expressed in transfected cells; host or cells: Chinese hamster ovary (CHO) cells, stably transfected; assay: Functional assay: cAMP production (LANCE TR-FRET) in CHO cells stably transfected with cloned β3 adrenergic receptor; assay type: cell-based; settings: cAMP production, CHO cells expressing human β3 AR; read-out: human Beta-3 agonist functional activity
Measure: EC50

INPUT: Entry under review: C[C@@H](C(=O)Nc1ccc(C[C@@H]2CC[C@H]([C@H](O)c3cccnc3)N2)cc1)n1ccccc1=O (single isomer, unassigned) . Reported EC50?
OUTPUT: < 10 nM

INPUT: Next: O=C(CN1CCCC1=O)Nc1ccc(C[C@@H]2CC[C@H]([C@H](O)c3cccnc3)N2)cc1
OUTPUT: < 100 nM

* * *

Reported pEC50 by item:
biological target: human β3 adrenergic receptor (Homo sapiens, UniProt P13945); construct: stably transfected with the cloned β-adrenergic receptor (β1, β2 or β3); expressed in transfected cells; host or cells: Chinese hamster ovary (CHO) cells, stably transfected; assay: Functional assay: cAMP production (LANCE TR-FRET) in CHO cells stably transfected with cloned β3 adrenergic receptor; type: cell-based; settings: Table 3; cAMP production, CHO cells expressing human β3 AR; read-out: Human β3 functional
Sequence (P13945 whole entry): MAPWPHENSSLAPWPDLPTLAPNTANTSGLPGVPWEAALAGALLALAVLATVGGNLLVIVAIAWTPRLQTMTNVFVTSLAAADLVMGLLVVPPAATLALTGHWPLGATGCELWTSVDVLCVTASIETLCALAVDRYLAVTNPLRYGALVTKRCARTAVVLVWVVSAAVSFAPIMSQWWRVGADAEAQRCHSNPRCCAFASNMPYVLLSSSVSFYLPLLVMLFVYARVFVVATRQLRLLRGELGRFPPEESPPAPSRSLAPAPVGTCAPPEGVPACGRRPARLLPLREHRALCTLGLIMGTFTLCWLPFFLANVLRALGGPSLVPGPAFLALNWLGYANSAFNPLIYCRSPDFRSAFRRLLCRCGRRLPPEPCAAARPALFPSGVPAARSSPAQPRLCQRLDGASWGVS
pEC50: −log10 of the molar value.

Cc1nc2c(s1)CCCC2C(=O)Nc1ccc(CC2CC[C@H]([C@H](O)c3cccnc3)N2)cc1 (single isomer, unassigned) [Example 131] :: 8.00 to 9.00
CC(C(=O)Nc1ccc(CC2CC[C@H]([C@H](O)c3cccnc3)N2)cc1)n1ccnn1 (single isomer, unassigned) [Example 148] :: 8.00 to 9.00
O=C(O)c1nc2c(s1)CCC2C(=O)Nc1ccc(CC2CC[C@H]([C@H](O)c3cccnc3)N2)cc1 (single isomer, unassigned) [Example 138] :: 7.00 to 7.96

INPUT: Entry under review: O=C(Nc1ccc(CC2CC[C@H]([C@H](O)c3cccnc3)N2)cc1)C1CCc2sc(Cl)nc21 (single isomer, unassigned) [Example 187] . Reported pEC50?
OUTPUT: 7.00 to 7.96

* * *

molecular target: human β3 adrenergic receptor (Homo sapiens); construct: stably transfected with the cloned β-adrenergic receptor (β1, β2 or β3); expressed in transfected cells; host or cells: Chinese hamster ovary (CHO) cells, stably transfected; experiment: Functional assay: cAMP production (LANCE TR-FRET) in CHO cells stably transfected with cloned β3 adrenergic receptor; format: cell-based; conditions: Table 3; cAMP production, CHO cells expressing human β3 AR; read-out: Human β3 functional
pEC50: −log10 of the molar value.
Measure: pEC50

Cc1nnc2n1CCC2C(=O)Nc1ccc(CC2CC[C@H]([C@H](O)c3cccnc3)N2)cc1 (single isomer, unassigned) [Example 170] :: 7.00 to 7.96

INPUT: Entry under review: Cc1noc2c1CCC2C(=O)Nc1ccc(CC2CC[C@H]([C@H](O)c3cccnc3)N2)cc1 (single isomer, unassigned) [Example 169] . Reported pEC50?
OUTPUT: 7.00 to 7.96

INPUT: Next: CCC(C(=O)Nc1ccc(CC2CC[C@H]([C@H](O)c3cccnc3)N2)cc1)n1cccn1 (single isomer, unassigned) [Example 184]
OUTPUT: 8.00 to 9.00

INPUT: Next: Cc1cc(C(C)C(=O)Nc2ccc(CC3CC[C@H]([C@H](O)c4cccnc4)N3)cc2)[nH]n1 (single isomer, unassigned) [Example 177]
OUTPUT: 6.00 to 7.00

INPUT: Next: CC(C(=O)Nc1ccc(CC2CC[C@H]([C@H](O)c3cccnc3)N2)cc1)n1cnnn1 (single isomer, unassigned) [Example 182]
OUTPUT: 7.00 to 7.96
